MEASURED TARGET: cynomolgus monkey heterodimeric single-chain CD3εγ extracellular domain (cynomolgus monkey, UniProt Q95LI5 22-117; Q95LI7 23-113)
Sequence (Q95LI7 other isoform, or with tags, fused parts or gaps): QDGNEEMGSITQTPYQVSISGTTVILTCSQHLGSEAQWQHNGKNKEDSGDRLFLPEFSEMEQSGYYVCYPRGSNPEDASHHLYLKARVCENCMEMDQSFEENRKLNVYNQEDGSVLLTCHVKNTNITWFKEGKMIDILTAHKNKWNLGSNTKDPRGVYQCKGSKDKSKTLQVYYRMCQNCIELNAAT
TEST: SPR, rabbit IgG captured, cyno single-chain CD3εγ ECD injected
Documented koff across a set of binders
Provide only the numeric value, understood in s⁻¹.

Below are worked cases with known answers.
Prompt: Could you share which koff value was measured for clone-01 (antibody, V domains shown, Recombinant rabbit IgG; also called purified monoclonal rabbit anti-CD3ε antibody clone-01) VH: QSVEESGGRLVTPGTPLTLTCTVSGFPLSSYAMIWVRQAPGKGLEWIGMILRAGNIYYASWAKGRFTISKTSTTVDLKITSPTTEDTATYFCARRQYNTDGYPIGIGDLWGPGTLVTVSS VL: AQVLTQTASSVSAAVGGTVTISCQSSESVYNNNRLSWFQQKPGQPPKQLIYSASSLASGVPSRFKGSGSGTQFTLTISDLECDDAATYYCQGEFSCSSADCFTFGGGTEVVVKG ?
Completion: 0.00392

Prompt: Field entry: clone-03 (antibody, V domains shown, Recombinant rabbit IgG; also called Clone 3) VH: QSLEESGGRLVTPGTPLTLTCTVSGFPLNRYAMLWVRQAPGKGLEWIGLITRADKKYYASWAKGRFTISKTSTTVDLEITGPTTEDTATYFCARRHYNTDGYPIAIGDLWGPGTLVTVSS VL: AQVLTQTPSSVSAAVGGTVTISCQSNENIYSNNRLSWFQQKPGQPPNQLIYSASSLASGVPSRFKGSGSGTQFTLTISDLECDDAATYYCQGEFNCNSADCFTFGGGTEVVVKG
Completion: 0.00403

Prompt: And clone-02 (antibody, V domains shown, Recombinant rabbit IgG; also called Clone 2) VH: QSLEESGGRLVTPGTPLTLTCTVSGFPLSAYAMIWVRQAPGKGLEWIGMIIRSGTVYYANWAKGRFTISKTSTTVDLKITSPTTEDTATYFCARRHYNADGYPIGIGDLWGPGTLVTVSS VL: AQVLTQTPSSVSAVVGGTVTISCQSSESVYSNNRLSWFQQKPGQPPKLLIYSASTLASGVPSRFKGSGSGTQFTLTITDLECDDAATYFCQGEFSCSSVDCFSFGGGTEVVVKG ?
Completion: 0.00258

Lab note: next binder to report on.
Prompt: If you can, please state the reported koff value of clone-12 (antibody, V domains shown, Recombinant rabbit IgG) VH: QSLEESGGRLVTPGTPLTLTCTVSGFPLSRYAMLWVRQAPGKGLEWIGLITRADNKYYASWAKGRFTISKTSTTVDLEITSPTTEDTATYFCARRHYNTDGYPIAIGDLWGPGTLVTVSS VL: AQVLTQTPSSVSATVGGTVTISCQSNENIYSNNRLSWFQQKPGQPPKLLIYSASSLASGVPSRFKGSGSGTQFTLTISDLECDDAATYYCQGEFNCNSADCFTFGGGTEVVVKG .
Completion: 0.00314

The measurements presented in this section are drawn from patent US20180244777A1.
